- ASSAY SYSTEM: human growth hormone secretagogue receptor (hGHS-R1a) (Homo sapiens, UniProt Q92847)
- Construct: purchased PerkinElmer BioSignal #RBHGHSM, lot#1887; host or cells: HEK-293, stably transfected (membranes)
- Sequence (Q92847 whole entry): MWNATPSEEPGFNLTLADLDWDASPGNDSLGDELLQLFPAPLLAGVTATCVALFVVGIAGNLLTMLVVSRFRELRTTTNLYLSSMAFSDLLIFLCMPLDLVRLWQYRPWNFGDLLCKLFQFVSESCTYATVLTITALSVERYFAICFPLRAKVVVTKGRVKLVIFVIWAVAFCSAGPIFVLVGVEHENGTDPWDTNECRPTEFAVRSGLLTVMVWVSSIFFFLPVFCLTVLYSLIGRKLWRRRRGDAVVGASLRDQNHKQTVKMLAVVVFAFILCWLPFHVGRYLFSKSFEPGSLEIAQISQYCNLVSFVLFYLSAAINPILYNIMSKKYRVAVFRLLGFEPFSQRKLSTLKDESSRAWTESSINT
- PROTOCOL NOTES: Competitive radioligand binding assay (ghrelin receptor), [125I]-ghrelin displacement on GHS-R/HEK 293 membranes
- CONDITION CONTEXT: binding activity at the human ghrelin receptor, [125I]-ghrelin competition, GHS-R/HEK 293 membranes; read-out: Ki
REPORTED ENDPOINT: Ki

[
  {
    "COMPOUND": "O=C1CNCCOc2ccccc2CCCNC(=O)C(Cc2ccccc2)NC(=O)C2(CCCC2)N1 (centres unmarked)",
    "REPORTED ENDPOINT": "Ki",
    "OBSERVED VALUE": "1000 to 10000 nM"
  },
  {
    "COMPOUND": "CC[C@H](C)[C@@H]1NCCOc2ccccc2C=CCNC(=O)[C@H](Cc2ccccc2)NC(=O)[C@@H](C)NC1=O (stereo in doubt)",
    "REPORTED ENDPOINT": "Ki",
    "OBSERVED VALUE": "100 to 1000 nM"
  },
  {
    "COMPOUND": "CC(C)[C@@H]1NCCOc2ccccc2C=CCNC(=O)[C@H](Cc2ccccc2)NC(=O)C2(CCCCC2)NC1=O (stereo in doubt)",
    "REPORTED ENDPOINT": "Ki",
    "OBSERVED VALUE": "100 to 1000 nM"
  }
]

// moving on: another record for Ki
# input Quick check: Ki of CC(C)C[C@@H]1NCCOc2ccccc2C=CCNC(=O)[C@H](Cc2ccc(F)cc2)NC(=O)C2(CCCC2)NC1=O (stereo in doubt) ?
# output 10 to 100 nM
